Values from patent US20230250160A1

biological target: T1, angiogenin (human (produced in the Human Secretome …, UniProt P03950 25-147)); assay: SPR Biacore T200, target on CM5 chip, ADAPT injected, 1:1 fit
T1 construct: also called bANG
T1 sequence (P03950 25-147 limits assumed): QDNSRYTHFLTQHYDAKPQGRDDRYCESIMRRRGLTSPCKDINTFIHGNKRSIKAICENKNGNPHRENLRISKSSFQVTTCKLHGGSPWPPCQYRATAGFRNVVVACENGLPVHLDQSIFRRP
Field: koff. Provide a value for each of the binders that follow.
Numbers only, in s⁻¹.

Sample records with koff:
binder: LYWAKDYADYELWQYGVSDFYRSLIWKAKTVEGVEALKLHILAALP (designed binder, also called ANG_2) [ADAPT variant ANG_02]
koff, s⁻¹: 0.0007
//
binder: LYVAKDNADWELWQYGVSDFYRSLIWKAKTVEGVEALKLHILAALP (designed binder) [ADAPT variant ANG_16]
koff, s⁻¹: 0.0005
//
binder: LHEAKDWADYELWSYGVSDFYRALIWKAKTVEGVEALKLHILAALP (designed binder) [ADAPT variant ANG_13]
koff, s⁻¹: 2.9e-06

Recall and state the measured koff for LWAAKDDADWELWQYGVSDFYRALIWKAKTVEGVEALKLHILAALP (designed binder, also called ANG_6) [ADAPT variant ANG_06] .
0.00032
